Ref: patent US4396613A

Endpoint: MIC. System: Streptococcus Group 9960. Items follow.
RESULT TYPE: MIC (µg/mL)

# COMPOUND, EXPERIMENTAL SYSTEM, MEASUREMENT UNITS, MEASURED NUMBER
data = [
    ("CCC1OC(=O)CC(O)C(C)C(OC2OC(C)C(OC3CC(C)(O)C(O)C(C)O3)C(N(C)C)C2O)C(CC=O)CC(C)C(=O)C=CC(C)=CC1COC(=O)N1CCC(O)CC1 (centres unmarked) [Compound 28]", "Streptococcus Group 9960", "µg/mL", 1),
    ("CCC1OC(=O)CC(O)C(C)C(OC2OC(C)C(OC3CC(C)(O)C(O)C(C)O3)C(N(C)C)C2OC(C)=O)C(CC=O)CC(C)C(=O)C=CC(C)=CC1COC(=O)C(C)(C)C (centres unmarked) [Compound 8]", "Streptococcus Group 9960", "µg/mL", 0.5),
    ("CCC1OC(=O)CC(O)C(C)C(OC2OC(C)C(OC3CC(C)(O)C(O)C(C)O3)C(N(C)C)C2O)C(CC=O)CC(C)C(=O)C=CC(C)=CC1COC(=O)n1ccnc1 (centres unmarked) [Compound 22]", "Streptococcus Group 9960", "µg/mL", 0.5),
    ("CCC(=O)OCC1C=C(C)C=CC(=O)C(C)CC(CC=O)C(OC2OC(C)C(OC3CC(C)(O)C(O)C(C)O3)C(N(C)C)C2OC(=O)CC)C(C)C(O)CC(=O)OC1CC (centres unmarked) [Compound 3, 2',23-Di-O-Propionyl-DMT]", "Streptococcus Group 9960", "µg/mL", 1),
    ("CCC1OC(=O)CC(O)C(C)C(OC2OC(C)C(OC3CC(C)(O)C(O)C(C)O3)C(N(C)C)C2OC(C)=O)C(CC=O)CC(C)C(=O)C=CC(C)=CC1COC(=O)C(Cl)(Cl)Cl (centres unmarked) [Compound 16]", "Streptococcus Group 9960", "µg/mL", 1),
]

* * *

Endpoint: MIC. System: Staphylococcus aureus. Items follow.
RESULT TYPE: MIC (µg/mL)

# MOLECULE, RESULT TYPE, MEASURED NUMBER
rows = [
    ("CCC1OC(=O)CC(O)C(C)C(OC2OC(C)C(OC3CC(C)(O)C(O)C(C)O3)C(N(C)C)C2OC(C)=O)C(CC=O)CC(C)C(=O)C=CC(C)=CC1COC(=O)Cc1cc(OC)ccc1OC (centres unmarked)", "MIC", 0.78),
    ("CCC1OC(=O)CC(O)C(C)C(OC2OC(C)C(OC3CC(C)(O)C(O)C(C)O3)C(N(C)C)C2OC(C)=O)C(CC=O)CC(C)C(=O)C=CC(C)=CC1COC(=O)COc1ccccc1 (centres unmarked)", "MIC", 0.39),
    ("CCC1OC(=O)CC(O)C(C)C(OC2OC(C)C(OC3CC(C)(O)C(O)C(C)O3)C(N(C)C)C2OC(C)=O)C(CC=O)CC(C)C(=O)C=CC(C)=CC1COC(=O)C12CC3CC(CC(C3)C1)C2 (centres unmarked)", "MIC", 6.25),
    ("CCC1OC(=O)CC(O)C(C)C(OC2OC(C)C(OC3CC(C)(O)C(O)C(C)O3)C(N(C)C)C2O)C(CC=O)CC(C)C(=O)C=CC(C)=CC1COC(=O)N1CCC(O)CC1 (centres unmarked)", "MIC", 1.56),
    ("CCC1OC(=O)CC(O)C(C)C(OC2OC(C)C(OC3CC(C)(O)C(O)C(C)O3)C(N(C)C)C2O)C(CC=O)CC(C)C(=O)C=CC(C)=CC1COC(=O)OC (centres unmarked)", "MIC", 1.56),
    ("CCC(=O)OCC1C=C(C)C=CC(=O)C(C)CC(CC=O)C(OC2OC(C)C(OC3CC(C)(O)C(O)C(C)O3)C(N(C)C)C2OC(=O)CC)C(C)C(O)CC(=O)OC1CC (centres unmarked)", "MIC", 0.78),
    ("CCC1OC(=O)CC(O)C(C)C(OC2OC(C)C(OC3CC(C)(O)C(O)C(C)O3)C(N(C)C)C2O)C(CC=O)CC(C)C(=O)C=CC(C)=CC1COC(=O)NCCCCCCCCN (centres unmarked)", "MIC", 6.25),
    ("CCC1OC(=O)CC(O)C(C)C(OC2OC(C)C(OC3CC(C)(O)C(O)C(C)O3)C(N(C)C)C2O)C(CC=O)CC(C)C(=O)C=CC(C)=CC1COC(=O)NCCCO (centres unmarked)", "MIC", 1.56),
    ("CCC1OC(=O)CC(O)C(C)C(OC2OC(C)C(OC3CC(C)(O)C(O)C(C)O3)C(N(C)C)C2OC(C)=O)C(CC=O)CC(C)C(=O)C=CC(C)=CC1COC(=O)Cc1ccc(Cl)cc1 (centres unmarked)", "MIC", 0.39),
    ("CCC1OC(=O)CC(O)C(C)C(OC2OC(C)C(OC3CC(C)(O)C(O)C(C)O3)C(N(C)C)C2OC(C)=O)C(CC=O)CC(C)C(=O)C=CC(C)=CC1COC(=O)C=Cc1ccccc1 (centres unmarked)", "MIC", 1.56),
    ("CCC1OC(=O)CC(O)C(C)C(OC2OC(C)C(OC3CC(C)(O)C(O)C(C)O3)C(N(C)C)C2OC(C)=O)C(CC=O)CC(C)C(=O)C=CC(C)=CC1COC(=O)CCCCc1ccccc1 (centres unmarked)", "MIC", 1.56),
    ("CCC1OC(=O)CC(O)C(C)C(OC2OC(C)C(OC3CC(C)(O)C(O)C(C)O3)C(N(C)C)C2OC(C)=O)C(CC=O)CC(C)C(=O)C=CC(C)=CC1COC(=O)C(C)(C)C (centres unmarked)", "MIC", 3.12),
    ("CCC1OC(=O)CC(O)C(C)C(OC2OC(C)C(OC3CC(C)(O)C(O)C(C)O3)C(N(C)C)C2O)C(CC=O)CC(C)C(=O)C=CC(C)=CC1COC(=O)NCCN1CCOCC1 (centres unmarked)", "MIC", 1.56),
    ("CCC1OC(=O)CC(O)C(C)C(OC2OC(C)C(OC3CC(C)(O)C(O)C(C)O3)C(N(C)C)C2OC(C)=O)C(CC=O)CC(C)C(=O)C=CC(C)=CC1COC(=O)C(Cl)(Cl)Cl (centres unmarked)", "MIC", 1.56),
    ("CCC1OC(=O)CC(O)C(C)C(OC2OC(C)C(OC3CC(C)(O)C(O)C(C)O3)C(N(C)C)C2OC(C)=O)C(CC=O)CC(C)C(=O)C=CC(C)=CC1COC(=O)OC (centres unmarked)", "MIC", 3.12),
    ("CCC1OC(=O)CC(O)C(C)C(OC2OC(C)C(OC3CC(C)(O)C(O)C(C)O3)C(N(C)C)C2OC(C)=O)C(CC=O)CC(C)C(=O)C=CC(C)=CC1COC(=O)CCc1ccccc1 (centres unmarked)", "MIC", 0.78),
    ("CCC(=O)OC1C(OC2C(CC=O)CC(C)C(=O)C=CC(C)=CC(COC(C)=O)C(CC)OC(=O)CC(O)C2C)OC(C)C(OC2CC(C)(O)C(O)C(C)O2)C1N(C)C (centres unmarked)", "MIC", 0.78),
    ("CCC(=O)OCC1C=C(C)C=CC(=O)C(C)CC(CC=O)C(OC2OC(C)C(OC3CC(C)(O)C(O)C(C)O3)C(N(C)C)C2O)C(C)C(O)CC(=O)OC1CC (centres unmarked)", "MIC", 0.78),
    ("CCC1OC(=O)CC(O)C(C)C(OC2OC(C)C(OC3CC(C)(O)C(O)C(C)O3)C(N(C)C)C2OC(C)=O)C(CC=O)CC(C)C(=O)C=CC(C)=CC1COC(=O)n1ccnc1 (centres unmarked)", "MIC", 6.25),
    ("CCC1OC(=O)CC(O)C(C)C(OC2OC(C)C(OC3CC(C)(O)C(O)C(C)O3)C(N(C)C)C2OC(=O)Cc2ccccc2)C(CC=O)CC(C)C(=O)C=CC(C)=CC1COC(=O)Cc1ccccc1 (centres unmarked)", "MIC", 0.78),
]
